Molecular target: SET1B complex (Homo sapiens, UniProt Q9UPS6)
Construct: Eurofins Cerep (contract laboratory)
Experiment: In vitro selectivity of methyltransferases
Conditions: H3K4
RECORDED ENDPOINT: IC50

**Query** Recall and state the measured IC50 for CCc1c(N(CC)C2CCOCC2)cc2oc(CN3CCCCC3)cc2c1C(=O)NCc1c(C)cc(C)[nH]c1=O [SHR2554] .
**Result** > 100 µM

----------
Biological target: UniProtKB Q96KQ7
Sequence (Q96KQ7 1-1210): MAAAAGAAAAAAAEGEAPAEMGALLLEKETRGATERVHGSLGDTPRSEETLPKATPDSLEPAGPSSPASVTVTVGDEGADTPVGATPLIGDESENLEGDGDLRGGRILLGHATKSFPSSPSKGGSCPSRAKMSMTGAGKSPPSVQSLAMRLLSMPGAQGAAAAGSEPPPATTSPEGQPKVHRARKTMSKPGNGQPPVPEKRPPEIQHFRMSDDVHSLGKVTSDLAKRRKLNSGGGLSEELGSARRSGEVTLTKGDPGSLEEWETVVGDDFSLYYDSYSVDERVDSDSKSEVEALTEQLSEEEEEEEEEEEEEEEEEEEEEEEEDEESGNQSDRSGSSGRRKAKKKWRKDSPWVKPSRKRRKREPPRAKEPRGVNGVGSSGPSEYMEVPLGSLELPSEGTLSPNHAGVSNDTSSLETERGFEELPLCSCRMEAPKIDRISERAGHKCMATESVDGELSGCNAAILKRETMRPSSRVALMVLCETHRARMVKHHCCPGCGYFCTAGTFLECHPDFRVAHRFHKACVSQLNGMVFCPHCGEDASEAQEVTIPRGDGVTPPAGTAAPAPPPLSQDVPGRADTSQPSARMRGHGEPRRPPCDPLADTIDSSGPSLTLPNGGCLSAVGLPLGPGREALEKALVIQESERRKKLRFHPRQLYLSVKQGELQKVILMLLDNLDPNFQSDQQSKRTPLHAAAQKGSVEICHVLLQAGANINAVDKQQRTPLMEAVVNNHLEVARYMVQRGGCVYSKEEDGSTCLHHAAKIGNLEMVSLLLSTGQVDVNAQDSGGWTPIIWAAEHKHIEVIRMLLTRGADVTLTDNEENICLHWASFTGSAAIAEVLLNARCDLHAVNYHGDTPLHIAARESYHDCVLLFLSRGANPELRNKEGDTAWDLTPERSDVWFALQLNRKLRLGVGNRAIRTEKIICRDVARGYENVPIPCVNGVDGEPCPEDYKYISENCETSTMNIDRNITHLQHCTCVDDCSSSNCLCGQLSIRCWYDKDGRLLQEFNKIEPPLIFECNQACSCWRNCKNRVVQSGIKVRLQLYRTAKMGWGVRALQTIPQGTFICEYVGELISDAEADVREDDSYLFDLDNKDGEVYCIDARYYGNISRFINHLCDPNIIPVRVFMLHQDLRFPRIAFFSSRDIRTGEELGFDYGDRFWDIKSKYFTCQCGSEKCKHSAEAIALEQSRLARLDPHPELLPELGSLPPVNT
pIC50: −log10 of the molar value.
RECORDED ENDPOINT: pIC50

**Query** Tell me its pIC50 on UniProtKB Q96KQ7: CCc1c(N(CC)C2CCOCC2)cc2oc(CN3CCCCC3)cc2c1C(=O)NCc1c(C)cc(C)[nH]c1=O [SHR2554]
**Result** < 4.00
